System: Human immunodeficiency virus 1
Assay: Antiviral activity against HIV1 NL4-3 clinical isolate X4 infected in human MT4 cells assessed as reduction in virus-induced cytopathic effect after 5 days by MTT assay
Format: functional, organism-based
Details: Human immunodeficiency virus 1, NL4-3 isolate X4, MT4, 120 h
measured_attribute: EC50
Report field: quantity (unit follows the number).

Give the value of EC50 reported for the following: Cn1c(CN(CCN2CCCCC2)CC2CCCN(C3CCCC3)C2)nc2ccccc21 (stereo unspecified)
600 nM

* * *

Tested on: Human immunodeficiency virus 1
Test: Antiviral activity against HIV1 clinical isolate R5 by cell based assay
Assay type: functional, organism-based
Details: Human immunodeficiency virus 1, isolate R5
measured_attribute: EC50 (nM)
Give just the numeric value; nM need not be written.

Give the value of EC50 reported for the following: Clc1cc(CN2CCCNCCNCCCNCC2)cc(Cl)n1
1200

* * *

Measured selectivity ratio by item
Test: Selectivity index, ratio of CC50 for human MT4 cells to EC50 for HIV1 3B infected in human MT4 cells
Type: toxicity, cell-based
Conditions: read-out: Ratio CC50/EC50

- smiles_structure: "C1CNCCNCCCN(CCCN2CCCNCCNCCCNCC2)CCNC1"
  selectivity ratio: "> 2500"

Now turn to the next compound.
Give the value of selectivity ratio reported for the following: C1CNCCNCCCN[C@H]([C@@H]2CNCCCNCCNCCCN2)CNC1
> 1000

* * *

Experiment: Tmax in Swiss Webster mouse plasma at 25 mg/kg, sc by LC-MS/MS analysis
Type: ADME, organism-based
measured_attribute: Tmax (min)
Give just the numeric value; min need not be written.

Give the value of Tmax reported for the following: c1ccc(CNCc2ccc(CN3CCCNCCNCCCNCC3)cc2)nc1
15

* * *

Tested on: Human immunodeficiency virus 1
Assay: Antiviral activity against HIV1 clinical isolate R5/X4 by cell based assay
Assay type: functional, organism-based
Settings: Human immunodeficiency virus 1, isolate R5/X4
measured_attribute: EC50 (nM)
Give just the numeric value; nM need not be written.

Give the value of EC50 reported for the following: Clc1cc(CN2CCCNCCNCCCNCC2)cc(Cl)n1
1200

* * *

Target: C-X-C chemokine receptor type 4 (Homo sapiens)
Sequence (P61073 whole entry): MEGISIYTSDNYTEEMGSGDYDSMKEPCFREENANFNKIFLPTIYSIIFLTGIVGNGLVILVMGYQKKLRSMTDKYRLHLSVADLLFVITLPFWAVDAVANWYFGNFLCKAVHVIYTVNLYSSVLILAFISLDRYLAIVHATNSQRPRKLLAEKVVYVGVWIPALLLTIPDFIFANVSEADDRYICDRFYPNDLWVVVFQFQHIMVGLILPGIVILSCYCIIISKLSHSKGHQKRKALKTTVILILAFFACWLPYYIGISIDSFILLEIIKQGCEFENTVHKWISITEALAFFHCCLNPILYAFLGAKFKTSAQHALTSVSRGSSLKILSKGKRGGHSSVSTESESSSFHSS
Test: Displacement of [125I]SDF-1 from human CXCR4 expressed in HEK293 cell membrane
measured_attribute: EC50 (nM)
Give just the numeric value; nM need not be written.

Give the value of EC50 reported for the following: c1ccc2c(NC3CCNCC3)nc(NCc3ccc(CNCCCNC4CCCCC4)cc3)nc2c1
68.4
